Target: Monoglyceride lipase (Homo sapiens)
Sequence (Q99685 whole entry): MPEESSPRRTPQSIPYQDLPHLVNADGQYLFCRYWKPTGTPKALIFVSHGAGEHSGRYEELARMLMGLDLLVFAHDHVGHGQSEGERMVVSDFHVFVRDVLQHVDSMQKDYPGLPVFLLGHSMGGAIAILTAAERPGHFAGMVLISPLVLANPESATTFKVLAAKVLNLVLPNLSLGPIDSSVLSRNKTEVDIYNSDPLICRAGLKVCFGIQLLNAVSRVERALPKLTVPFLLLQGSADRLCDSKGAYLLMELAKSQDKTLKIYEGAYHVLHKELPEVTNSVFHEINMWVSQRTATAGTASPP
Experiment: Inhibition of Homo sapiens (human) recombinant monoacylglycerol lipase assessed as inhibition of [3H]-2-oleolylglycerol hydrolysis after 10 min by liquid scintillation counting
quantity.measured: IC50

Clc1ccc(CN2CCOCC2)cc1 ... > 1000 µM
COc1ccc(CC(=S)N2CCOCC2)cc1OC ... > 1000 µM
S=C(c1ccccc1)N1CCOCC1 ... > 1000 µM
S=C(c1ccc(Br)cc1)N1CCOCC1 ... 31.6 µM

Okay, next one:
Requested read-out: IC50. Entry: `Cc1cccc(C(=S)N2CCCCC2)c1`
> 1000 µM

====

Recorded log10 of IC50, one value per entry.
Biological target: Monoglyceride lipase (Homo sapiens)
Assay: Inhibition of Homo sapiens (human) recombinant monoacylglycerol lipase assessed as inhibition of [3H]-2-oleolylglycerol hydrolysis after 10 min by liquid scintillation counting
Field: value | Transform: log10 | Quantity: IC50 | Unit: µM

Recorded results for 4 compounds are shown here.
S=C(Cc1ccc(-c2ccccc2)cc1)N1CCOCC1 ... 0.76
S=C(Cc1ccc(-c2ccccc2)cc1)NCCc1ccccc1 ... 2.73
S=C(NCCc1ccccc1)c1ccccc1Cl ... 2.22
O=[N+]([O-])c1cccc(C(=S)N2CCOCC2)c1 ... 0.98

Okay, next one:
# get_value(readout= log10 of IC50, system= Monoglyceride lipase (Homo sapiens)) for `S=C(Cc1ccc(Cl)cc1)N1CCOCC1`
1.17

====

Target: Monoglyceride lipase (Homo sapiens, UniProt Q99685)
Sequence (Q99685 whole entry): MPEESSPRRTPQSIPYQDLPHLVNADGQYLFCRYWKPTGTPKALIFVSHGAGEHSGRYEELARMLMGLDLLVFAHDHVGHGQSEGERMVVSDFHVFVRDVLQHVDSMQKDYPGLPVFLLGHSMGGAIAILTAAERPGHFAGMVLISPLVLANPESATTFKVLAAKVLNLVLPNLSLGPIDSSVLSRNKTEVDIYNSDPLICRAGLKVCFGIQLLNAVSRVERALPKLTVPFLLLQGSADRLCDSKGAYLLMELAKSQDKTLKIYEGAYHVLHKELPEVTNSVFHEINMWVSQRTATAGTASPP
Assay: Inhibition of Homo sapiens (human) recombinant monoacylglycerol lipase assessed as inhibition of [3H]-2-oleolylglycerol hydrolysis after 10 min by liquid scintillation counting
Threshold 30 µM: IC50 strictly smaller gives 1, otherwise 0.

Please review the following examples before continuing.
Oc1ccc(C(=S)NCCc2ccccc2)cc1O ... 0
S=C(Cc1ccccc1Cl)N1CCOCC1 ... 1
Fc1ccc(C(=S)NCCc2ccccc2)cc1 ... 0
S=C(c1ccc(C2CCCCC2)cc1)N1CCOCC1 ... 0
O=C(c1ccccc1Cl)N1CCOCC1 [(2-CHLOROPHENYL)(MORPHOLINO)METHANONE] ... 0

Hi there! Is IC50 for `S=C(c1ccc(-c2ccccc2)cc1)N1CCOCC1` below 30 µM, do you know?
1

Hi there! Is IC50 for `CN(C)c1ccc(C(=S)N2CCOCC2)cc1` below 30 µM, do you know?
0

Hi there! Is IC50 for O=C(c1ccc(Cl)cc1)N1CCOCC1 [(4-CHLOROPHENYL)(MORPHOLINO)METHANONE] below 30 µM, do you know?
0

Hi there! Is IC50 for `S=C(NCCc1ccccc1)c1ccc(Cl)cc1` below 30 µM, do you know?
0

Hi there! Is IC50 for `Oc1ccc(C(=S)N2CCOCC2)cc1` below 30 µM, do you know?
0

Hi there! Is IC50 for `S=C(c1ccc(Cl)c(Cl)c1)N1CCOCC1` below 30 µM, do you know?
0

Hi there! Is IC50 for `S=C(c1ccccc1Cl)N1CCOCC1` below 30 µM, do you know?
1

Hi there! Is IC50 for `S=C(c1cccc(Cl)c1)N1CCOCC1` below 30 µM, do you know?
0

Hi there! Is IC50 for `S=C(c1ccccc1)N1CCCCC1` below 30 µM, do you know?
0

Hi there! Is IC50 for `COC(=O)c1ccc(C(=S)NCCc2ccccc2)cc1` below 30 µM, do you know?
1
